System: MX-1 breast xenograft, intrarenal, nude mice, tumor weight
Test: NCI In Vivo Anticancer Drug Screen. Data for tumor model Human Mammary Carcinoma MX-1 Xenograft (intrarenal inoculation) in NU/NU BALB/C (nude) mice
Conditions: endpoint: mean tumor weight change; dose: 12.5 mg/kg/injection; schedule: Q04DX003 (ip); vehicle: other; higher = larger tumour
Results filed as inconclusive are left out.
Would you mind telling me the reported T/C of each entry?

molecule	test system	observed
Cc1nc(N)nc(N)c1N1CCN(c2ccc(C(=O)NC(CCC(=O)O)C(=O)O)cc2)CC1 (centres undefined)	MX-1 breast xenograft, intrarenal, nude mice, tumor weight	85 % of control

Would you mind giving T/C for every molecule in the list below?
1. O=C(Nc1cccc(O)c1)C(Cl)=C(Cl)Cl
2. COc1cccc2c1C(=O)C1=C(C2=O)c2c(O)cc(CO)cc2C(O)C1O (centres undefined)
3. N#Cc1ccc(NN=O)nc1

1. 68 % of control
2. 102 % of control
3. 95 % of control

====

Would you mind telling me the reported T/C of each entry?
Tested on: MX-1 breast xenograft, intrarenal, nude mice, tumor weight
Assay: NCI In Vivo Anticancer Drug Screen. Data for tumor model Human Mammary Carcinoma MX-1 Xenograft (intrarenal inoculation) in NU/NU BALB/C (nude) mice
Conditions: endpoint: mean tumor weight change; dose: 800.0 mg/kg/injection; schedule: Q04DX003 (ip); vehicle: saline with Tween-80; higher = larger tumour
Records with an inconclusive call do not appear.

Would you mind giving T/C for every compound in the list below?
1. CC1=C(/C=C/C(C)=C/C=C/C(C)=C/C(=O)Nc2ccc(O)cc2)C(C)(C)CCC1
2. NC(=O)c1[nH]cnc1O
3. Cc1ccc2c(c1)C1(SC(C)C(=O)N1c1ccc(Cl)cc1)C(=O)N2 (centres undefined)

["69 % of control", "69 % of control", "72 % of control"]

Note T/C for the compound shown: "c1ccc(P(CCNCCP(c2ccccc2)c2ccccc2)c2ccccc2)cc1"
81 % of control

====

Tested on: MX-1 breast xenograft, intrarenal, nude mice, tumor weight
Experiment: NCI In Vivo Anticancer Drug Screen. Data for tumor model Human Mammary Carcinoma MX-1 Xenograft (intrarenal inoculation) in NU/NU BALB/C (nude) mice
Conditions: endpoint: mean tumor weight change; dose: 300.0 mg/kg/injection; schedule: Q04DX003 (ip); vehicle: DMSO; higher = larger tumour
Records with an inconclusive call do not appear.
Would you mind telling me the reported T/C of each entry?

Guide cases for T/C, answers given:
molecule	T/C
O=C(O)[C@H](Cc1ccccc1)N1C(=O)c2ccccc2C1=O	60 % of control
CC(CNC(=O)C12CC3CC(CC(C3)C1)C2)NC(=O)C12CC3CC(CC(C3)C1)C2 (stereo not drawn)	106 % of control
Cc1ccccc1N=C(c1ccccc1)C1C(=O)c2ccccc2C1=O	102 % of control
COc1ccc(-c2cc(C(=O)Nc3cc(C(F)(F)F)cc(C(F)(F)F)c3)c3ccccc3n2)cc1	70 % of control
Nc1ccc(S(=O)(=O)Nc2cnc3c(Cl)cccc3n2)cc1	49 % of control

Would you mind giving T/C for every molecule in the list below?
1. COc1ccc(N=C(C)C2C(=O)c3ccccc3C2=O)cc1
2. C=Cc1cc(OC)c2c(c1)c(=O)oc1c2cc(OC)c2c(O)ccc(C3OC(C)C(O)C(C)(O)C3O)c21 (stereo not drawn)
3. CC1(C)Nc2cc3c(cc2-n2cccc21)oc1ccccc13

["98 % of control", "64 % of control", "90 % of control"]

====

Would you mind telling me the reported T/C of each entry?
System: MX-1 breast xenograft, intrarenal, nude mice, tumor weight
Assay: NCI In Vivo Anticancer Drug Screen. Data for tumor model Human Mammary Carcinoma MX-1 Xenograft (intrarenal inoculation) in NU/NU BALB/C (nude) mice
Details: endpoint: mean tumor weight change; dose: 12.5 mg/kg/injection; schedule: Q04DX003 (ip); vehicle: Klucel (hydroxypropylcellulose) (HPC); higher = larger tumour
Method: The antitumor activity of compounds was measured in mice bearing transplantable tumors. Survival or tumor size were measured and the results are expressed as the measurement made in the treated group (T) divided by the measurement made in the vehicle treated control group (C). The tumor model used in this assay is Human Mammary Carcinoma MX-1 Xenograft (intrarenal inoculation) in NU/NU BALB/C (nude) mice
Results filed as inconclusive are left out.

molecule	T/C
CCC(=O)[O][Bi]([c]1ccccc1)[c]1ccccc1	100 % of control

Would you mind giving T/C for every molecule in the list below?
1. CC(=O)OCC1OC([S-])C(OC(C)=O)C(OC(C)=O)C1OC(C)=O.CC[PH+](CC)CC.CC[PH+](CC)CC.[Au].[Au] (centres undefined)
2. N#CC(C#N)=NNc1ccc2cn[nH]c2c1
3. CC1=CCCC2C1(C)CCC(C)C2(C)Cc1cc(O)ccc1O (centres undefined)

1. 73 % of control
2. 94 % of control
3. 84 % of control

====

Test system: MX-1 breast xenograft, intrarenal, nude mice, tumor weight
Test: NCI In Vivo Anticancer Drug Screen. Data for tumor model Human Mammary Carcinoma MX-1 Xenograft (intrarenal inoculation) in NU/NU BALB/C (nude) mice
Conditions: endpoint: mean tumor weight change; dose: 50.0 mg/kg/injection; schedule: Q04DX003 (ip); vehicle: other; higher = larger tumour
Records with an inconclusive call do not appear.
measured parameter: T/C

Guide cases for T/C, answers given:
compound	T/C
NC(Cc1ccccc1)C(=O)OCN1C(=O)C2C3C=CC(C2C1=O)C1C2C(=O)N(COC(=O)C(N)Cc4ccccc4)C(=O)C2C31 (stereo not given)	86 % of control
N#Cc1ccc(NN=O)nc1	4 % of control
Cc1nc(N)nc(N)c1N1CCN(c2ccc(C(=O)NC(CCC(=O)O)C(=O)O)cc2)CC1 (stereo not given)	122 % of control
CCN(CC)c1cc(C(=O)O)cc(N(CC)CC)n1	155 % of control

Note T/C for the compound shown: "Cc1c(O)/c(=C\O)c2nc3c(=O)ccc(C(=O)NCCN(C)C)c3[nH]c2c1=O"
77 % of control

====

Tested on: MX-1 breast xenograft, intrarenal, nude mice, tumor weight
Assay: NCI In Vivo Anticancer Drug Screen. Data for tumor model Human Mammary Carcinoma MX-1 Xenograft (intrarenal inoculation) in NU/NU BALB/C (nude) mice
Conditions: endpoint: mean tumor weight change; dose: 50.0 mg/kg/injection; schedule: Q04DX003 (sc); vehicle: saline; higher = larger tumour
Experimental: The antitumor activity of compounds was measured in mice bearing transplantable tumors. Survival or tumor size were measured and the results are expressed as the measurement made in the treated group (T) divided by the measurement made in the vehicle treated control group (C). The tumor model used in this assay is Human Mammary Carcinoma MX-1 Xenograft (intrarenal inoculation) in NU/NU BALB/C (nude) mice
Inconclusive results are not listed.
Would you mind telling me the reported T/C of each entry?

Guide cases for T/C, answers given:
molecule	observed
NC1=NC(=O)N2CC12 (stereo not given)	106 % of control
CN(N=O)C(N)=O	26 % of control
Brc1c(NC2=NCCN2)ccc2nccnc12	69 % of control
Nc1ccn([C@@H](C=O)O[C@@H](C=O)CO)c(=O)n1	70 % of control

Now consider a different molecule.
Note T/C for the molecule shown: COc1cccc2c1C(=O)c1c(O)c3c(c(O)c1C2=O)C[C@@](O)(/C(C)=N\O)C[C@@H]3OC1CC(N)C(O)C(C)O1 (stereo not given in full)
23 % of control

====

System: MX-1 breast xenograft, intrarenal, nude mice, tumor weight
Assay: NCI In Vivo Anticancer Drug Screen. Data for tumor model Human Mammary Carcinoma MX-1 Xenograft (intrarenal inoculation) in NU/NU BALB/C (nude) mice
Conditions: endpoint: mean tumor weight change; dose: 200.0 mg/kg/injection; schedule: Q04DX003 (ip); vehicle: saline; higher = larger tumour
Inconclusive results are not listed.
measured parameter: T/C

Guide cases for T/C, answers given:
compound	T/C
CN(C)N=Nc1ccc(C(=O)O)cc1	2 % of control
COc1ccc(C=C(C(=O)CCN(C)C)C(=O)CCN(C)C)cc1	96 % of control
CN1C2CCC1C(Br)C(=O)C2 (configuration not stated)	66 % of control
CN1COc2c(n(C)c(=O)[nH]c2=O)C1	92 % of control
Cc1ccc(C(=O)Nc2ccc(S(=O)(=O)O)c3cc(S(=O)(=O)O)cc(S(=O)(=O)O)c23)cc1NC(=O)c1cccc(NC(=O)Nc2cccc(C(=O)Nc3cc(C(=O)Nc4ccc(S(=O)(=O)O)c5cc(S(=O)(=O)O)cc(S(=O)(=O)O)c45)ccc3C)c2)c1	51 % of control

Would you mind giving T/C for every compound in the list below?
1. COc1cc(C2c3cc4c(cc3[C@@H](OC3OC5CO[C@@H](C)OC5C(O)C3O)[C@H]3COC(=O)C23)OCO4)cc(OC)c1OC (some centres not stated)
2. O=P1(N(CCCl)CCCl)NCCCO1 (configuration not stated)

1. 61 % of control
2. -73 % of control
